For each of the sequences below, state its PBM binding z-score.
test system: VDR homodimer (NR concentration 270 nM); assay: PBM binding z-score (relative to random genomic background probes); higher = stronger binding; sequences stand for … in GC…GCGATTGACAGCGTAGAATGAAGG
Give bare numbers.

Completed entries (count: 3):
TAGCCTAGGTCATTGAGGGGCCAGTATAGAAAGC	1.16
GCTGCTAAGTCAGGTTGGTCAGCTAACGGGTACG	-0.246
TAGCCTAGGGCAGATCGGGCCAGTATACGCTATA	-0.532

--- query ---
Sample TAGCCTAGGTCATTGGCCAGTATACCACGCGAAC — what was its PBM binding z-score? 1.26
